Taken from ChEMBL document CHEMBL4138078.

species on record: Homo sapiens; assay: Inhibition of full length His-tagged HSP90/GST-tagged Cdc37 (unknown origin) interaction at 100 uM after 1 hr by HTRF assay relative to control
experimental_endpoint: inhibition

Cc1cc(NS(=O)(=O)c2ccc(NC(=O)CC(=O)Nc3ccc(S(=O)(=O)Nc4cc(C)on4)cc3)cc2)no1 | 65.6 to 66%
COc1ccc(S(=O)(=O)N(CC(=O)N/N=C/c2ccc(OCC(N)=O)cc2)c2ccccc2)cc1 | < 10%
COc1cc(/C=C2\SC(=S)N(CCCCCCN3C(=O)/C(=C\c4ccc(O)c(OC)c4)SC3=S)C2=O)ccc1O | 17%
CC(=O)Nc1ccc(C(=O)OCCOC(=O)C2=C(C)NC(C)=C(C(=O)OCCNC(=O)c3ccccc3O)[C@H]2c2cccc([N+](=O)[O-])c2)cc1 | < 10%
COc1ccc([C@H](CC(=O)O)NC(=O)CCc2c(C)c3ccc(O)cc3oc2=O)cc1OC | < 10%
CC1=C(C(=O)OCCNC(=O)c2ccc(O)cc2)[C@@H](c2cccc([N+](=O)[O-])c2)C(C(=O)OCCNC(=O)c2ccccc2O)=C(C)N1 | < 10%
CCOC(=O)c1c(C)n(Cc2ccccc2)c2ccc(OC[C@H](O)CN3CCN(CCO)CC3)cc12 | < 10%
Cc1cc(NS(=O)(=O)c2ccc(NC(=O)CCC(=O)Nc3ccc(S(=O)(=O)Nc4cc(C)on4)cc3)cc2)no1 | 69.8 to 70%

Supply inhibition value. Item: Cc1ccnc(NS(=O)(=O)c2ccc(NC(=O)c3cccc(C(=O)Nc4ccc(S(=O)(=O)Nc5nccc(C)n5)cc4)c3)cc2)n1
< 10%

Supply inhibition value. Item: O=C(CCC(=O)Nc1ccc(S(=O)(=O)Nc2ccccc2)cc1)Nc1ccc(S(=O)(=O)Nc2ccccc2)cc1
49.6%

----------
target: Heat shock protein HSP90 (Homo sapiens, UniProt P07900+P08238); test: Binding affinity to N-terminal GST-tagged HSP90 (unknown origin) expressed in Escherichia coli by biolayer interferometry analysis
experimental_endpoint: Kd

Guide cases for Kd, answers given:
CC.COc1ccc(NC(=O)C2=C(C)Nc3nc(CCCO)nn3[C@H]2c2ccc(OC)c(OC)c2)cc1 | > 100 µM
Cc1cc(NS(=O)(=O)c2ccc(NC(=O)CCCC(=O)Nc3ccc(S(=O)(=O)Nc4cc(C)on4)cc3)cc2)no1 | 80.4 µM

Proceeding to the next compound to report its Kd.
Please report Kd with Heat shock protein HSP90 (Homo sapiens, UniProt P07900+P08238) for item Cn1nccc1NS(=O)(=O)c1ccc(NC(=O)CCC(=O)Nc2ccc(S(=O)(=O)Nc3ccnn3C)cc2)cc1 .
40 to 40.4 µM

----------
Quick reference: IC50 of the listed items.
system: SK-BR-3; assay: Antiproliferative activity against human SKBR3 cells after 72 hrs by MTT assay; format: functional, cell-based; details: SK-BR-3, 72 h

Guide cases for IC50, answers given:
Cn1nccc1NS(=O)(=O)c1ccc(NC(=O)CCC(=O)Nc2ccc(S(=O)(=O)Nc3ccnn3C)cc2)cc1 | 14.7 µM
CC.COc1ccc(NC(=O)C2=C(C)Nc3nc(CCCO)nn3[C@H]2c2ccc(OC)c(OC)c2)cc1 | > 100 µM
Cc1cc(NS(=O)(=O)c2ccc(NC(=O)CCCC(=O)Nc3ccc(S(=O)(=O)Nc4cc(C)on4)cc3)cc2)no1 | 59.4 µM
O[C@H](COc1ccc(OC[C@H](O)CN2CCN(c3cccc(Cl)c3)CC2)cc1)CN1CCN(c2cccc(Cl)c2)CC1 | > 100 µM

Proceeding to the next molecule to report its IC50.
Please report IC50 with SK-BR-3 for item COc1ccc(CCNc2cc(N3CCN(CCO)CC3)ccc2[N+](=O)[O-])cc1OC .
84.6 µM

----------
system: MCF7; experiment: Antiproliferative activity against human MCF7 cells after 72 hrs by MTT assay; assay type: functional, cell-based; conditions: MCF7, 72 h
experimental_endpoint: IC50 (µM)
Reply with just the number (in µM).

Guide cases for IC50, answers given:
O[C@H](COc1ccc(OC[C@H](O)CN2CCN(c3cccc(Cl)c3)CC2)cc1)CN1CCN(c2cccc(Cl)c2)CC1 | 89.2
Cc1cc(NS(=O)(=O)c2ccc(NC(=O)CCCC(=O)Nc3ccc(S(=O)(=O)Nc4cc(C)on4)cc3)cc2)no1 | 66.9

Please report IC50 with MCF7 for item Cn1nccc1NS(=O)(=O)c1ccc(NC(=O)CCC(=O)Nc2ccc(S(=O)(=O)Nc3ccnn3C)cc2)cc1 .
26.4

----------
species on record: Homo sapiens; test: Inhibition of full length His-tagged HSP90/GST-tagged Cdc37 (unknown origin) interaction at 100 uM after 1 hr by HTRF assay relative to control
Quick reference: inhibition of the listed items.
Reply with just the number (in %).

O[C@H](COc1ccc(OC[C@H](O)CN2CCN(c3cccc(Cl)c3)CC2)cc1)CN1CCN(c2cccc(Cl)c2)CC1 | 47.6

Supply inhibition value. Item: O=C(CC(=O)Nc1ccc(S(=O)(=O)Nc2ccccc2)cc1)Nc1ccc(S(=O)(=O)Nc2ccccc2)cc1
30.4

Supply inhibition value. Item: Cc1cc(NS(=O)(=O)c2ccc(NC(=O)CCCC(=O)Nc3ccc(S(=O)(=O)Nc4cc(C)on4)cc3)cc2)no1
59.3

Supply inhibition value. Item: COc1ccc(CCNc2cc(N3CCN(CCO)CC3)ccc2[N+](=O)[O-])cc1OC
30.7

Supply inhibition value. Item: CC.COc1ccc(NC(=O)C2=C(C)Nc3nc(CCCO)nn3[C@H]2c2ccc(OC)c(OC)c2)cc1
36.6

----------
tested on: A549; test: Antiproliferative activity against human A549 cells after 72 hrs by MTT assay; assay type: functional, cell-based; details: A549, 72 h
experimental_endpoint: IC50 (µM)
Reply with just the number (in µM).

Cc1cc(NS(=O)(=O)c2ccc(NC(=O)CCCC(=O)Nc3ccc(S(=O)(=O)Nc4cc(C)on4)cc3)cc2)no1 | 75.3

Proceeding to the next molecule to report its IC50.
Supply IC50 value. Item: Cn1nccc1NS(=O)(=O)c1ccc(NC(=O)CCC(=O)Nc2ccc(S(=O)(=O)Nc3ccnn3C)cc2)cc1
38.4

----------
organism: Homo sapiens; assay: Inhibition of full length His-tagged HSP90/GST-tagged Cdc37 (unknown origin) interaction at 100 uM after 1 hr by HTRF assay relative to control
Quick reference: inhibition of the listed items.

CC/N=C1\S[C@H](CC(=O)Nc2cccc(NC(=O)C[C@@H]3S/C(=N/CC)N(CC)C3=O)c2)C(=O)C1CC (stereo partly drawn) | < 10%
CCOc1ccc(C(=O)C2=C(O)C(=O)N(CCOCCO)[C@@H]2c2cccc(OC)c2)cc1 | < 10%
O=C(CCC(=O)Nc1ccc(S(=O)(=O)Nc2ccccn2)cc1)Nc1ccc(S(=O)(=O)Nc2ccccn2)cc1 | < 10%

Supply inhibition value. Item: COc1ccc(NS(=O)(=O)c2ccc(NC(=O)CCC(=O)Nc3ccc(S(=O)(=O)Nc4ccc(OC)nn4)cc3)cc2)nn1
< 10%

Supply inhibition value. Item: NC(=O)COc1ccc(/C=N/NC(=O)[C@H]2CCCN2S(=O)(=O)c2ccc(Cl)cc2)cc1
< 10%

----------
organism: Homo sapiens; assay: Inhibition of full length His-tagged HSP90/GST-tagged Cdc37 (unknown origin) interaction at 100 uM after 1 hr by HTRF assay relative to control
experimental_endpoint: inhibition

COc1ccc(C(=O)Nc2ccccc2C(=O)NCCCCO)cc1OC | 19.3%

Supply inhibition value. Item: COc1cccc(C(c2c(N)nc(SCC(N)=O)[nH]c2=O)c2c(N)nc(SCC(N)=O)[nH]c2=O)c1
14.3%

Supply inhibition value. Item: COC(=O)c1cc(NCc2cc(Cl)c(OCC(N)=O)c(OC)c2)ccc1N1CCOCC1
< 10%

Supply inhibition value. Item: CCCOC(=O)c1ccc(Oc2c(C)oc3c(CN4CCN(CCO)CC4)c(O)ccc3c2=O)cc1
< 10%

Supply inhibition value. Item: CCOc1cc(CNc2ccc(N3CCOCC3)c(C(=O)OC)c2)cc(Cl)c1OCC(N)=O
< 10%

----------
test system: A549; assay: Antiproliferative activity against human A549 cells after 72 hrs by MTT assay; type: functional, cell-based; conditions: A549, 72 h
Quick reference: IC50 of the listed items.

O[C@H](COc1ccc(OC[C@H](O)CN2CCN(c3cccc(Cl)c3)CC2)cc1)CN1CCN(c2cccc(Cl)c2)CC1 | > 100 µM
COc1ccc(CCNc2cc(N3CCN(CCO)CC3)ccc2[N+](=O)[O-])cc1OC | > 100 µM

Proceeding to the next compound to report its IC50.
Supply IC50 value. Item: CC.COc1ccc(NC(=O)C2=C(C)Nc3nc(CCCO)nn3[C@H]2c2ccc(OC)c(OC)c2)cc1
> 100 µM

----------
organism: Homo sapiens; experiment: Inhibition of full length His-tagged HSP90/GST-tagged Cdc37 (unknown origin) interaction at 100 uM after 1 hr by HTRF assay relative to control
experimental_endpoint: inhibition

Guide cases for inhibition, answers given:
COc1ccc(-c2c(C)oc3cc(OCCN4CCN(CCO)CC4)ccc3c2=O)cc1OC | < 10%
O=C(CCC(=O)Nc1ccc(S(=O)(=O)Nc2ncccn2)cc1)Nc1ccc(S(=O)(=O)Nc2ncccn2)cc1 | < 10%

Proceeding to the next compound to report its inhibition.
Supply inhibition value. Item: C[C@H](O)c1ccc(-c2ccc(CNCCCSc3nnnn3-c3ccccc3)o2)cc1
< 10%
